Observed EC50, system Gyc-88EL/89Db (Drosophila melanogaster, UniProt Q8INF0+Q9VEU5).

Consider the reported EC50 for these molecules:
> print(dat)
                                   molecule  recordedresult
1  CCN(CC)/[N+]([O-])=N/O [DEA-NONOate, diethylamine- (DEA)-NONOate]         ~0.1 µM
2                CCNCCN(CC)N(O)N=O [NOC-12]           ~2 µM

Here's the next entry for you.
// returns reported EC50 for input CC(=O)NC(C(=O)O)C(C)(C)SN=O (stereo not drawn) [SNAP, S-nitroso-N-acetylpenicillamine]
~10 µM

---

# assayTarget: Gycα-99B/β-100B (Drosophila melanogaster, UniProt Q07093+Q9VA09)
measurementKind: EC50 (µM)
Give bare numbers, in µM.

Given Nc1nc(-c2nn(Cc3ccccc3F)c3ncccc23)ncc1C1CC1 [BAY 41-2272] , state its recorded EC50.
7.3
